# test-target: kinases (Homo sapiens, UniProt P00519)
# Construct: purchased Eurofins/DiscoveRx; host or cells: E. coli BL21-derived host (T7 phage display) for most kinases; HEK-293 for the rest
# Sequence (P00519 whole entry): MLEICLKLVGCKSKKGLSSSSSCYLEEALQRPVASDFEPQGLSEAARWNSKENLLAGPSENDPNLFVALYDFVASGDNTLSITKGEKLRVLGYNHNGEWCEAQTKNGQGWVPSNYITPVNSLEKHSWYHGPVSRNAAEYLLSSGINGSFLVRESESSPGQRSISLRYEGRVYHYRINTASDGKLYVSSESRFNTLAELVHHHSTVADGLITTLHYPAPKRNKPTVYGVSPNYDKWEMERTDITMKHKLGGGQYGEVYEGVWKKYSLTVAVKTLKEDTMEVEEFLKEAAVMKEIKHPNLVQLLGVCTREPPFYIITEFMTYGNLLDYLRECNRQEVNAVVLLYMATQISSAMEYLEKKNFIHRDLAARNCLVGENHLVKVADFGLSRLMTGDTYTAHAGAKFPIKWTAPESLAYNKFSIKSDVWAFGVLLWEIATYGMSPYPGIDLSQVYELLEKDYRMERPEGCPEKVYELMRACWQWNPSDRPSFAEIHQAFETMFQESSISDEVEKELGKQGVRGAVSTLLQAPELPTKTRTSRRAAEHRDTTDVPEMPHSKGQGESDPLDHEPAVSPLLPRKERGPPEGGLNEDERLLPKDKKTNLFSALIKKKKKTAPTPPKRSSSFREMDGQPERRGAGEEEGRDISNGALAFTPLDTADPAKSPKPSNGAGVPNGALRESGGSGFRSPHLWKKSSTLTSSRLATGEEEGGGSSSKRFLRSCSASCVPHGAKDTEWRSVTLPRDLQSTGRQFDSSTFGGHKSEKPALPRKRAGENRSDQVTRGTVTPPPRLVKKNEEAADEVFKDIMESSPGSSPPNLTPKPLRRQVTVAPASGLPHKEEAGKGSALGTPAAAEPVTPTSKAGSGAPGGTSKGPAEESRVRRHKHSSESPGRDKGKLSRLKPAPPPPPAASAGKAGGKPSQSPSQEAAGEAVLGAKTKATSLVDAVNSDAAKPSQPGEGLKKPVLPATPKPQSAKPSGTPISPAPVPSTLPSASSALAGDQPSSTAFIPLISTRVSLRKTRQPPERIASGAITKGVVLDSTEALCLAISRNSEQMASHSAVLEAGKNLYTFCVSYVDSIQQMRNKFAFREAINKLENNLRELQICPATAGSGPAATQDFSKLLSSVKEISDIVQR
# method-summary: KINOMEscan kinase binding assay (Eurofins/DiscoveRx), % Ctrl
# assay-context: 1 μM; ABL1-nonphosphorylated
measured-parameter: % Ctrl, ABL1-nonphosphorylated (% Ctrl)

Before answering, review these 3 worked examples.
{"entry-smiles": "Cc1cc2c([nH]1)/C=C1\\C(=O)Nc3cnc(cc31)-c1cnn(C)c1COCCNC2=O", "% Ctrl, ABL1-nonphosphorylated [% Ctrl]": 83}
{"entry-smiles": "Cc1cc2c([nH]1)/C=C1\\C(=O)Nc3cc(Cl)c(cc31)OCCO[C@@H](C(=O)NC1CNC1)CN(C)C2=O", "% Ctrl, ABL1-nonphosphorylated [% Ctrl]": 65}
{"entry-smiles": "Cc1cc2c([nH]1)/C=C1\\C(=O)Nc3ccc(cc31)O[C@@H](C)COCCN(C)C2=O", "% Ctrl, ABL1-nonphosphorylated [% Ctrl]": 0}

A = Cc1cc2c([nH]1)/C=C1\C(=O)Nc3ccc(cc31)-c1cnn(C)c1CNCCN(C)C2=O
B = Cc1cc2c([nH]1)/C=C1\C(=O)Nc3cnc(nc31)N(C)CCCOCCN(C)C2=O
C = Cc1cc2c([nH]1)/C=C1\C(=O)Nc3ccc(cc31)OCCOCCN(C)C2=O
Input: Sort the molecules on % Ctrl, ABL1-nonphosphorylated; start with the lowest figure. Labels, ranked as asked.
Output: A, C, B
(A: 0 % Ctrl, C: 0.75 % Ctrl, B: 90 % Ctrl)
